Biological target: Na^+ /Ca^2+ exchange system (Canis lupus familiaris)
Construct: Sarcolemmal vesicles which were prepared from the removed dog ventricular muscles
Test: Inhibitory action on Na+/Ca2+ exchange system using myosarcolemmal vesicles (45Ca uptake)
Details: sarcolemmal vesicles from dog ventricular muscles; Na+-loaded; 20 μM [45Ca]-calcium chloride, pH 7.4, 10 seconds uptake
Structures can show the parent of a compound that is named as a salt.
Label key: t means IC50 under 3000 nM; f means IC50 of 3000 nM or more.

# Molecule, Assigned Label
records = [
    ("Nc1cccc(N)c1Oc1ccc(OCc2ccccc2)cc1 [Example 14, dihydrochloride]", "f"),
    ("NC(=O)COc1ccc(Oc2ccc(OCc3ccccc3)cc2)c(N)c1 [Example 19, hydrochloride]", "f"),
    ("COC(=O)COc1ccc(Oc2ccc(OCc3ccccc3)cc2)c(N)c1 [Example 20, hydrochloride]", "t"),
    ("COc1ccc(Oc2ccc(OCc3ccccc3)cc2)c(N)c1 [Example 1, hydrochloride]", "t"),
    ("CCOc1ccc(Oc2ccc(OCc3ccccc3)cc2)c(N)c1 [Example 17, hydrochloride]", "t"),
]
